The compounds listed here are annotated with their growth inhibition.
assay: inhibition of 3D7 malaria parasite growth – strain 3D7 (AID 2306);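 note: 0% = DMSO wells and 100% = chloroquine plus artemisinin control wells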; conditions: P. falciparum 3D7 erythrocytic growth, LDH absorbance, 72 h; at 2 µM; hits give high values

{"Compound": "CCCCc1ccc(C(=O)Nc2ccc3nc(N4CCN(C)CC4)cc(C)c3c2)cc1", "growth inhibition, %": 90}
{"Compound": "CCN(CCCN1CCCC1)c1cc(C)nc(Nc2ccc(Cl)cc2)n1", "growth inhibition, %": 100}
{"Compound": "COc1cc2nc(N(C)CC3COc4ccccc4O3)nc(N)c2cc1OC (centres undefined)", "growth inhibition, %": 94}
{"Compound": "Cc1cc(N)c2cc(NC(=O)c3cccc(C(=O)Nc4ccc5nc(C)cc(N)c5c4)c3)ccc2n1", "growth inhibition, %": 94}
{"Compound": "CCNc1cc(C(=O)N[C@@H](Cc2ccccc2)[C@H](O)CNC(C)(C)CSCC(C)C)cc(N2CCCC2=O)c1", "growth inhibition, %": 101}
{"Compound": "COCc1nc(N)nc(N)c1-c1ccc(Cl)c(Cl)c1", "growth inhibition, %": 84}
{"Compound": "O=C(N[C@@H](Cc1ccccc1)C(=O)NC1CCCCC1)c1ccc(O)c(-c2ccc(Cl)c(Cl)c2)c1", "growth inhibition, %": 98}
{"Compound": "CC(C)(CNC(=O)[C@@H]1CCCN(CCOc2ccc(Cl)cc2)C1)c1nc(-c2ccc(Cl)c(O)c2)c(-c2ccncc2)[nH]1", "growth inhibition, %": 92}
{"Compound": "COc1cc(Nc2nccc(N3CCC(NC(=O)c4cc5ccccc5s4)C3)n2)cc(OC)c1OC (centres undefined)", "growth inhibition, %": 96}
{"Compound": "COc1cc2nc(N3CCN(C(=O)c4ccco4)CC3)nc(NCc3ccccc3)c2cc1OC", "growth inhibition, %": 101}
{"Compound": "CCOc1ccc(C(=O)Nc2cc(Br)c3c(c2)CNCC3)cc1Br", "growth inhibition, %": 96}
{"Compound": "COc1c(C2CCN(CCCCNC(=O)c3ccc(NC(=O)c4ccc(C#N)cc4)cc3)CC2)ccc2c1CCCC2", "growth inhibition, %": 97}
{"Compound": "O=C(Nc1ccccc1)OCCOc1ccc(CC2SC(=O)NC2=O)cc1 (centres undefined)", "growth inhibition, %": 100}
{"Compound": "CCN(CC)CCN(Cc1ccc(-c2ccc(C(F)(F)F)cc2)cc1)C(=O)Cn1c(CCc2cccc(F)c2F)c(C)c(=O)c2ccccc21", "growth inhibition, %": 87}
{"Compound": "CC(C)C[C@H](NC(=O)c1cc2ccccc2s1)C(=O)N[C@H]1CCN(Cc2ccc(OC3CCN(C)C3)c(Cl)c2)C1 (some centres undefined)", "growth inhibition, %": 97}
{"Compound": "OC(CNc1ccnc(Nc2ccccc2)n1)c1cccc(C(F)(F)F)c1 (centres undefined)", "growth inhibition, %": 100}
{"Compound": "COc1cc(-c2ccccc2)ccc1C(=O)Nc1ccc2c(c1)N(C)CCC2", "growth inhibition, %": 85}
{"Compound": "Cc1ccccc1C1CCN(C2CCC(NC(=O)c3ccc(-c4cccs4)s3)CC2)CC1 (centres undefined)", "growth inhibition, %": 101}
{"Compound": "Fc1cccc(Nc2nc(NCc3ccc(OCc4ccccc4)cc3)nc(Nc3cccc(F)c3)n2)c1", "growth inhibition, %": 84}

These data points were gathered from PubChem BioAssay.
